Test system: E. coli GC 4560
Assay: MIC, broth microdilution
Details: Escherichia coli, GC4560, read-out: MINIMAL INHIBITORY CONCENTRATION MIC, Human Serum
Endpoint Name: MIC (µg/mL)

[
  {
    "Structure Smiles": "COC(=O)N(CC(=O)Nc1cc(N(C)C)c2c(c1O)C(=O)C1=C(O)[C@]3(O)C(=O)C(C(N)=O)=C(O)[C@@H](N(C)C)[C@@H]3C[C@@H]1C2)C(C)(C)C",
    "Reading Unit": "µg/mL",
    "Test Value": 1
  },
  {
    "Structure Smiles": "CC(C)COC(=O)N(CC(=O)Nc1cc(N(C)C)c2c(c1O)C(=O)C1=C(O)[C@]3(O)C(=O)C(C(N)=O)=C(O)[C@@H](N(C)C)[C@@H]3C[C@@H]1C2)C(C)(C)C",
    "Reading Unit": "µg/mL",
    "Test Value": 4
  },
  {
    "Structure Smiles": "Cc1cc(C)cc(C(=O)OCOC(=O)N(CC(=O)Nc2cc(N(C)C)c3c(c2O)C(=O)C2=C(O)[C@]4(O)C(=O)C(C(N)=O)=C(O)[C@@H](N(C)C)[C@@H]4C[C@@H]2C3)C(C)(C)C)c1",
    "Reading Unit": "µg/mL",
    "Test Value": 8
  },
  {
    "Structure Smiles": "CCCCCCC(=O)OCOC(=O)N(CC(=O)Nc1cc(N(C)C)c2c(c1O)C(=O)C1=C(O)[C@]3(O)C(=O)C(C(N)=O)=C(O)[C@@H](N(C)C)[C@@H]3C[C@@H]1C2)C(C)(C)C",
    "Reading Unit": "µg/mL",
    "Test Value": 1
  }
]

###

Tested on: E. faecalis GC 2265
Assay: MIC, broth microdilution
Conditions: Enterococcus faecalis, GC2265, E. faecalis GC 2265; Water pre-incubation
Endpoint Name: MIC

[
  {
    "Compound": "CCCCN(CC(=O)Nc1cc(N(C)C)c2c(c1O)C(=O)C1=C(O)[C@]3(O)C(=O)C(C(N)=O)=C(O)[C@@H](N(C)C)[C@@H]3C[C@@H]1C2)C(=O)OCOC(=O)C(C)(C)C [Example 13]",
    "Test Value": "8 µg/mL"
  },
  {
    "Compound": "CCCCN(CC(=O)Nc1cc(N(C)C)c2c(c1O)C(=O)C1=C(O)[C@]3(O)C(=O)C(C(N)=O)=C(O)[C@@H](N(C)C)C3CC1C2)C(=O)OCOC(=O)c1ccc(C)cc1 (stereo partly drawn) [Example 3]",
    "Test Value": "32 µg/mL"
  },
  {
    "Compound": "CCCCN(CC(=O)Nc1cc(N(C)C)c2c(c1O)C(=O)C1=C(O)[C@]3(O)C(=O)C(C(N)=O)=C(O)[C@@H](N(C)C)[C@@H]3C[C@@H]1C2)C(=O)OCOC(=O)Cc1ccccc1 [Example 12]",
    "Test Value": "8 µg/mL"
  }
]

###

System: S. pneumoniae* GC 4465
Assay: MIC, broth microdilution
Conditions: Streptococcus pneumoniae, read-out: MINIMAL INHIBITORY CONCENTRATION MIC, Human Serum
Here, each record is paired with measured MIC data.

[
  {
    "Structure Smiles": "CCCCOC(=O)N(CC(=O)Nc1cc(N(C)C)c2c(c1O)C(=O)C1=C(O)[C@]3(O)C(=O)C(C(N)=O)=C(O)[C@@H](N(C)C)[C@@H]3C[C@@H]1C2)C(C)(C)C",
    "Reading Unit": "µg/mL",
    "MIC": 4
  },
  {
    "Structure Smiles": "Cc1cc(C)cc(C(=O)OCOC(=O)N(CC(=O)Nc2cc(N(C)C)c3c(c2O)C(=O)C2=C(O)[C@]4(O)C(=O)C(C(N)=O)=C(O)[C@@H](N(C)C)[C@@H]4C[C@@H]2C3)C(C)(C)C)c1",
    "Reading Unit": "µg/mL",
    "MIC": 2
  },
  {
    "Structure Smiles": "CC(C)COC(=O)N(CC(=O)Nc1cc(N(C)C)c2c(c1O)C(=O)C1=C(O)[C@]3(O)C(=O)C(C(N)=O)=C(O)[C@@H](N(C)C)[C@@H]3C[C@@H]1C2)C(C)(C)C",
    "Reading Unit": "µg/mL",
    "MIC": 4
  },
  {
    "Structure Smiles": "CN(C)c1cc(NC(=O)CN(C(=O)OCOC(=O)c2ccc(F)cc2)C(C)(C)C)c(O)c2c1C[C@H]1C[C@H]3[C@H](N(C)C)C(O)=C(C(N)=O)C(=O)[C@@]3(O)C(O)=C1C2=O",
    "Reading Unit": "µg/mL",
    "MIC": 0.25
  }
]

###

Tested on: S. aureus GC 1131
Test: MIC, broth microdilution
Conditions: Staphylococcus aureus, GC1131, S. aureus GC 1131; Mouse Serum pre-incubation

[
  {
    "Molecule": "CCCN(CC(=O)Nc1cc(N(C)C)c2c(c1O)C(=O)C1=C(O)[C@]3(O)C(=O)C(C(N)=O)=C(O)[C@@H](N(C)C)[C@@H]3C[C@@H]1C2)C(=O)OCOC(=O)c1ccc(F)cc1",
    "System Under Test": "S. aureus GC 1131",
    "MIC [µg/mL]": 1
  },
  {
    "Molecule": "CCCN(CC(=O)Nc1cc(N(C)C)c2c(c1O)C(=O)C1=C(O)[C@]3(O)C(=O)C(C(N)=O)=C(O)[C@@H](N(C)C)[C@@H]3C[C@@H]1C2)C(=O)OCOC(=O)Cc1ccccc1",
    "System Under Test": "S. aureus GC 1131",
    "MIC [µg/mL]": 0.25
  },
  {
    "Molecule": "CCCCN(CC(=O)Nc1cc(N(C)C)c2c(c1O)C(=O)C1=C(O)[C@]3(O)C(=O)C(C(N)=O)=C(O)[C@@H](N(C)C)C3CC1C2)C(=O)OCOC(=O)C(C)C (some centres unmarked)",
    "System Under Test": "S. aureus GC 1131",
    "MIC [µg/mL]": 1
  },
  {
    "Molecule": "CCCN(CC(=O)Nc1cc(N(C)C)c2c(c1O)C(=O)C1=C(O)[C@]3(O)C(=O)C(C(N)=O)=C(O)[C@@H](N(C)C)[C@@H]3C[C@@H]1C2)C(=O)OCOC(=O)c1ccc(C)cc1",
    "System Under Test": "S. aureus GC 1131",
    "MIC [µg/mL]": 0.5
  },
  {
    "Molecule": "CCCCN(CC(=O)Nc1cc(N(C)C)c2c(c1O)C(=O)C1=C(O)[C@]3(O)C(=O)C(C(N)=O)=C(O)[C@@H](N(C)C)C3CC1C2)C(=O)OCOC(=O)c1ccc(OC)cc1 (some centres unmarked)",
    "System Under Test": "S. aureus GC 1131",
    "MIC [µg/mL]": 2
  }
]

###

System: E. coli GC 2232
Experiment: MIC, broth microdilution
Details: Escherichia coli, GC2232, read-out: MINIMAL INHIBITORY CONCENTRATION MIC, Human Serum
The following compounds are shown together with reported MIC values.
Endpoint Name: MIC

[
  {
    "Structure Smiles": "CN(C)c1cc(NC(=O)CN(C(=O)OCOC(=O)c2ccc(F)cc2)C(C)(C)C)c(O)c2c1C[C@H]1C[C@H]3[C@H](N(C)C)C(O)=C(C(N)=O)C(=O)[C@@]3(O)C(O)=C1C2=O",
    "Test Value": "4 µg/mL"
  },
  {
    "Structure Smiles": "Cc1cc(C)cc(C(=O)OCOC(=O)N(CC(=O)Nc2cc(N(C)C)c3c(c2O)C(=O)C2=C(O)[C@]4(O)C(=O)C(C(N)=O)=C(O)[C@@H](N(C)C)[C@@H]4C[C@@H]2C3)C(C)(C)C)c1",
    "Test Value": "32 µg/mL"
  },
  {
    "Structure Smiles": "CCCCCCC(=O)OCOC(=O)N(CC(=O)Nc1cc(N(C)C)c2c(c1O)C(=O)C1=C(O)[C@]3(O)C(=O)C(C(N)=O)=C(O)[C@@H](N(C)C)[C@@H]3C[C@@H]1C2)C(C)(C)C",
    "Test Value": "16 µg/mL"
  },
  {
    "Structure Smiles": "CCC(=O)OCOC(=O)N(CC(=O)Nc1cc(N(C)C)c2c(c1O)C(=O)C1=C(O)[C@]3(O)C(=O)C(C(N)=O)=C(O)[C@@H](N(C)C)[C@@H]3C[C@@H]1C2)C(C)(C)C",
    "Test Value": "4 µg/mL"
  },
  {
    "Structure Smiles": "CC(C)COC(=O)N(CC(=O)Nc1cc(N(C)C)c2c(c1O)C(=O)C1=C(O)[C@]3(O)C(=O)C(C(N)=O)=C(O)[C@@H](N(C)C)[C@@H]3C[C@@H]1C2)C(C)(C)C",
    "Test Value": "> 64 µg/mL"
  }
]
